measurement target: T1, full length monkey MSR1 on HEK293.mfMSR1 cells (Macaca fascicularis, UniProt A0A2K5UWE2 1-451)
T1 construct: whole, on cells
T1 sequence: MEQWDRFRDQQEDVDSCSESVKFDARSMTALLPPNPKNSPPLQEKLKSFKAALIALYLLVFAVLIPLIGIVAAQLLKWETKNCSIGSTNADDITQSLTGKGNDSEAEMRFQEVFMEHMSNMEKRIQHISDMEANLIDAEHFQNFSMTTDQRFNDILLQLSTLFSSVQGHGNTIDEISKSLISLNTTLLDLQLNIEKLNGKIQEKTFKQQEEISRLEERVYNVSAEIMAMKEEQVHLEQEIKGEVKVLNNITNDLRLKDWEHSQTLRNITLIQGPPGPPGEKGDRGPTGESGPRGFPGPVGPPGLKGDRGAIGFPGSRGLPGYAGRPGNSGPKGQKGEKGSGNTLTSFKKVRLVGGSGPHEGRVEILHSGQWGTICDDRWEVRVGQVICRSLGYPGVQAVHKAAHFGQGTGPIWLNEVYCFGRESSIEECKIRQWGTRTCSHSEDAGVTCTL
assay protocol: ECL cell binding, HEK293.mfMSR1
So basically, if binding signal ratio to isotype control (11 nM) comes in under 40 fold it's fulfilled, and if it's 40 fold or more it's not fulfilled.

Worked examples follow.
Does the reported binding signal ratio to isotype control (11 nM) of the following binder sit strictly below 40 fold? H1H27747P-N297Q (antibody, human IgG1, V domains shown, human IgG1 Fc with N297Q) VH: QVQLVESGGAVVQPGRSLRLSCAASGFTFSYYGMHWVRQAPGKGLEWVAVISYDGSKKYYADSVKGRFTISRDNSKNTLYLQMNSLRAEDTAVYYCAKDLTVDFYYGMDVWGQGTTVTVSS VL: DIQMTQSPSSVSASVGDRVTITCRASQGISSWLAWYQQKPGKAPKLLIYATSSLQSGAPSRFSGSGSGTDFTLTISSLQPEDFATYFCQQANSFPYTFGQGTKLEIKR fulfilled

Entry H1H27754P-N297Q (antibody, human IgG1, V domains shown, human IgG1 Fc with N297Q) VH: EVQLVESGGGLVQPGGSLRLSCAASGFTFRTYAMTWVRQAPGKGLDWVSAITGDGGNTYYADSVKGRFTISRDNSKNTLYLQMNSLRAEDTAIYYCAKDQRFSFALYYFDYWGQGTLVTVSS VL: DIQMTQSPSSVSASVGDRVTITCRASQGISSWLAWYQQKPGNAPKLLIYAAFSLQSGVPSRFSGSGSGTDFTLTISSLQPEDFATYYCQQANNFPWTFGQGTKVEIKR please not fulfilled

Entry H1H21234N (antibody, human IgG1, V domains shown, original human IgG1 Fc) VH: QVQLQESGPGLVKPSETLSLTCTVTGGSISRNYWSWIRQPPGKGLEWIGYIYYSGSIDYNPSLKSRVTISVDTSKNQFSLKLSSMTAADTAVYYCARDRWNWKYGMDVWGQGTTVIVSS VL: EIVLTQSPGTLSLSPGERATLSCRASQTVRNNYLAWYHQKPGQAPRLLIYGASSRATGIPDRFSGSGSGTDFTLTISRLEPEDFTVYYCHQYGNSPWTFGQGTKMEIKR please fulfilled

Entry H1H21234N-N297Q (antibody, human IgG1, V domains shown, human IgG1 Fc with N297Q) VH: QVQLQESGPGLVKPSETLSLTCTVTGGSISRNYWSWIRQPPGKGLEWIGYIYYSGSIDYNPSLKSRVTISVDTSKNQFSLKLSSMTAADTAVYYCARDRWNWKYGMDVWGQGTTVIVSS VL: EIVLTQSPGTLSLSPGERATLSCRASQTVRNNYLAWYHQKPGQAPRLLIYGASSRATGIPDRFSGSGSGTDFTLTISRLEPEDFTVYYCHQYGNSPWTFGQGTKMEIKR please fulfilled

Entry H1H27729P-N297Q (antibody, human IgG1, V domains shown, human IgG1 Fc with N297Q) VH: QVQLVESGGGLVKPGGSLRLSCAASGFIFSDYYMSWIRQAPGKGLEWVSYISSSGTTIYGDSVKGRFTMSRDNAKNSLYLQMNSLRAEDTAVYYCARNYALFDYWGQGTLVTVSS VL: DIQMTQSPSSLSASVGDRVTITCQASQDISKYLNWYQQKPGKAPKLLIYYTSNLETGVPSRFSGSGSGTDFTFTISSLQPEDIATYYCHQSDYLPFTFGPGTKVDIKR please fulfilled

Entry H1H27731P-N297Q (antibody, V domains shown, human IgG1 Fc with N297Q) VH: QLQLQESGPGLVKPSETLSLTCTVSGGSISRISYYWGWIRQPPGKGLEWIGSIYDSGSTYYNPSLKSRVTISIDTSKNQFSLKLSSVTAADTAVYYCVRYSSSSAFAFDYWGQGTLVTVSS VL: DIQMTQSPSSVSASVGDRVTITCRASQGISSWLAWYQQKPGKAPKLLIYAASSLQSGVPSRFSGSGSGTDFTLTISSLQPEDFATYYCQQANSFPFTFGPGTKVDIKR please not fulfilled

New cases:
Does the reported binding signal ratio to isotype control (11 nM) of the following binder sit strictly below 40 fold? H2aM25695N (antibody, mouse IgG2a, V domains shown, mouse IgG2a Fc) VH: QVQLQESGPGLVKPSETLSLTCTVTGGSISRNYWSWIRQPPGKGLEWIGYIYYSGSINYNPSLKSRVTISVDMSKNQFSLKLNSVTAADTAVYYCARDRWNWKYGMDVWGQGTTVIVSS VL: EIVLTQSPGTLSLSPGERATLSCRASQTVRNSYLAWYHQKPGQAPRLLIYGASSRATGIPDRFSGSGSGTDFTLTISRLEPEDFAVYYCQQYGSSYWTFGQGTKMEIKR not fulfilled

// data source = patent US20200368361A1
